- Test system: MDA‐MB‐231 triple‐negative breast cancer cells
- procedure text: Antiproliferative activity by MTT assay on MDA‐MB‐231 cell line
- Format: cell-based
- setup conditions: Homo sapiens, 24 h treatment, 1% DMSO, mean ± standard deviation of three separate determinations, read-out: IC50 of inhibitory activity on MDA‐MB‐231 triple‐negative breast cancer cells
pIC50: −log10 of the molar value.
readout name: pIC50

[
  {
    "compound": "O=C1CN[C@H](Cc2ccc(OCc3ccccc3)cc2)C(=O)N1 [(R)‐8b]",
    "pIC50": 2.44
  },
  {
    "compound": "CC(C)[C@H]1NCC(=O)NC1=O [(R)‐3b]",
    "pIC50": 3.09
  },
  {
    "compound": "CC(O)[C@H]1NCC(=O)NC1=O (stereo partly drawn) [(R)‐12b]",
    "pIC50": 2.77
  }
]

I: CSCC[C@@H]1NCC(=O)NC1=O [(S)‐13a]
II: C[C@@H]1NCC(=O)NC1=O [(S)‐2a]
III: O=C1CN[C@@H](Cc2ccccc2)C(=O)N1 [(S)‐7a]
IV: O=C1CN[C@@H](Cc2c[nH]c3ccccc23)C(=O)N1 [(S)‐14a]
Sort by pIC50, descending. Could you list the labels in the order requested?
II, IV, III, I

I: O=C1CN[C@@H](Cc2ccc(O)cc2)C(=O)N1 [(S)‐9a]
II: CC(C)[C@@H]1NCC(=O)NC1=O [(S)‐3a]
Parameter check: reported pIC50 is higher for which label, I or II ? # reply format: chosen label
II

a: O=C1CN[C@H](Cc2ccccc2)C(=O)N1 [(R)‐7b]
b: CSCC[C@H]1NCC(=O)NC1=O [(R)‐13b]
Parameter check: reported pIC50 is higher for which label, a or b ? # reply format: chosen label
b

P: CC(O)[C@@H]1NCC(=O)NC1=O (stereo partly drawn) [(S)‐12a]
Q: C[C@H]1NCC(=O)NC1=O [(R)‐2b]
R: CC(C)C[C@H]1NCC(=O)NC1=O [(R)‐4b]
Sort by pIC50, descending. Could you list the labels in the order requested?
Q, R, P

I: O=C1CNCC(=O)N1
II: O=C1CN[C@H](CO)C(=O)N1 [(R)‐11b]
// which entry reports the smaller pIC50, I or II ? # reply format: chosen label
II

P: CCC(C)[C@@H]1NCC(=O)NC1=O (stereo partly drawn) [(S)‐5a]
Q: O=C1CN[C@H](Cc2c[nH]c3ccccc23)C(=O)N1 [(R)‐14b]
R: O=C1CN[C@@H](Cc2ccc(OCc3ccccc3)cc2)C(=O)N1 [(S)‐8a]
S: O=C1CN[C@@H](CO)C(=O)N1 [(S)‐11a]
Ascending by pIC50, please. Could you list the labels in the order requested?
R, Q, S, P

A: NC(=O)COc1ccc(C[C@@H]2NCC(=O)NC2=O)cc1 [(S)‐10a]
B: CC(C)C[C@@H]1NCC(=O)NC1=O [(S)‐4a]
Parameter check: reported pIC50 is higher for which label, A or B ? # reply format: chosen label
B
